Ref: BindingDB's records for patent US11903936

SYSTEM: Dihydroorotate dehydrogenase (quinone), mitochondrial (Plasmodium falciparum (isolate 3D7))
Sequence (Q08210 whole entry): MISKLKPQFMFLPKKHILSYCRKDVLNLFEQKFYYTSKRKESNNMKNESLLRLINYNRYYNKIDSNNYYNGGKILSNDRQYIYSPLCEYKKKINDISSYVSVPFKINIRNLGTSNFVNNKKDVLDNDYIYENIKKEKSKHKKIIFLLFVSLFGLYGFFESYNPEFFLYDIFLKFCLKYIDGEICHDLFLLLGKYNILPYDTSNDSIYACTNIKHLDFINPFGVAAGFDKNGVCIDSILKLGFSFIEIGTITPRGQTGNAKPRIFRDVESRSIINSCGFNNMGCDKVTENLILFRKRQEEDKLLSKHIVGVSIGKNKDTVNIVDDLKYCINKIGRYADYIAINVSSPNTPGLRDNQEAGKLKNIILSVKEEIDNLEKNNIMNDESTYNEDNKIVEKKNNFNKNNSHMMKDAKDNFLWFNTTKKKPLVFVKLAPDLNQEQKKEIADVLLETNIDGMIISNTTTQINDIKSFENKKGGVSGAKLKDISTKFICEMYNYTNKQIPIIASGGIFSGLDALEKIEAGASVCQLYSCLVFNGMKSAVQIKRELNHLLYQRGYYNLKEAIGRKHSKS
ASSAY_PROTOCOL: P. falciparum growth and inhibition assays

{"columns": ["COMPOUND", "EC50"],
 "data": [
  ["Cc1c(Cc2ccc(C(F)(F)F)c(F)c2)c[nH]c1C(=O)NC(C)c1nc[nH]n1 (stereo unspecified)", "39 nM"]
]}
